Measured pEC50, listed per entry.
# testSystem: T1, human 4-1BB on cells (human, UniProt Q07011 24-255)
# T1 construct: whole, on cells; Stably transfected CHO cells (flow cytometry) and bought Jurkat reporter cells (bioassay); also called Flp-In-CHO::hu4-1BB; human 4-1BB-expressing CHO cells
# T1 sequence (Q07011 24-255): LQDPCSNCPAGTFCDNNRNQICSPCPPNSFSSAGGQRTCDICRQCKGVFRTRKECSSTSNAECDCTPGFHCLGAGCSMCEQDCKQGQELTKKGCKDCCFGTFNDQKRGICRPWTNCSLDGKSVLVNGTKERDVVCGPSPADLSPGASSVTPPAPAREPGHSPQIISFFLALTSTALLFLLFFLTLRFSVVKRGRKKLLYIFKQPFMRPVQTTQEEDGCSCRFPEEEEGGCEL
# assaySummary: flow cytometry, Flp-In-CHO::hu4-1BB cells
The read-out pEC50 is expressed as -log10 of concentration in moles per litre.

Here are 3 binders together with their reported answers.
Suppose we examine the binder multimeric protein SEQ ID NO: 41 (designed binder) QDSTSDLIPAPPLSKVPLQQNFQDNQFHGKWYVVGQAGNIRLREDKDPIKMMATIYELKEDKSYDVTMVKFDDKKCMYDIWTFVPGSQPGEFTLGKIKSFPGHTSSLVRVVSTNYNQHAMVFFKFVFQNREEFYITLYGRTKELTSELKENFIRFSKSLGLPENHIVFPVPIDQCIDGGSPTPTPTTPTPTPTGVRLWATRQAMLGQVHEVPEGWLIFVAEQEELYVRVQNGFRKVQLEARTPLGGSGGAPEQKLISEEDLGSHHHHHHHHHH ; what pEC50 value has been reported?
8.13

Continue with multimeric protein SEQ ID NO: 39 (designed binder) QDSTSDLIPAPPLSKVPLQQNFQDNQFHGKWYVVGQAGNIRLREDKDPIKMMATIYELKEDKSYDVTMVKFDDKKCMYDIWTFVPGSQPGEFTLGKIKSFPGHTSSLVRVVSTNYNQHAMVFFKFVFQNREEFYITLYGRTKELTSELKENFIRFSKSLGLPENHIVFPVPIDQCIDGGGGGSGVRLWATRQAMLGQVHEVPEGWLIFVAEQEELYVRVQNGFRKVQLEARTPLGGSGGAPEQKLISEEDLGSHHHHHHHHHH
8.23

Continue with multimeric protein SEQ ID NO: 47 (designed binder) QDSTSDLIPAPPLSKVPLQQNFQDNQFHGKWYVVGQAGNIRLREDKDPIKMMATIYELKEDKSYDVTMVKFDDKKCMYDIWTFVPGSQPGEFTLGKIKSFPGHTSSLVRVVSTNYNQHAMVFFKFVFQNREEFYITLYGRTKELTSELKENFIRFSKSLGLPENHIVFPVPIDQCIDGGGGGSGGGGSGGGGSKPLDGEYFTLQIRGRERFEMFRELNEALELKDAQAGKEPGGSGGAPEQKLISEEDLGSHHHHHHHHHH
8.42

Next:
Suppose we examine the binder 4-1BB-specific lipocalin mutein SEQ ID NO: 64 (designed binder, Monomeric hNGAL mutein; also called 4-1BB-targeting lipocalin mutein as included in the multimeric proteins) QDSTSDLIPAPPLSKVPLQQNFQDNQFHGKWYVVGQAGNIRLREDKDPIKMMATIYELKEDKSYDVTMVKFDDKKCMYDIWTFVPGSQPGEFTLGKIKSFPGHTSSLVRVVSTNYNQHAMVFFKFVFQNREEFYITLYGRTKELTSELKENFIRFSKSLGLPENHIVFPVPIDQCIDG ; what pEC50 value has been reported?
8.40

Continue with multimeric protein SEQ ID NO: 44 (designed binder) GVRLWATRQAMLGQVHEVPEGWLIFVAEQEELYVRVQNGFRKVQLEARTPLGGGGSQDSTSDLIPAPPLSKVPLQQNFQDNQFHGKWYVVGQAGNIRLREDKDPIKMMATIYELKEDKSYDVTMVKFDDKKCMYDIWTFVPGSQPGEFTLGKIKSFPGHTSSLVRVVSTNYNQHAMVFFKFVFQNREEFYITLYGRTKELTSELKENFIRFSKSLGLPENHIVFPVPIDQCIDGGGSGGAPEQKLISEEDLGSHHHHHHHHHH
8.18

Continue with multimeric protein SEQ ID NO: 38 (designed binder, Trivalent; Self-assembled from its monomer polypeptides) QDSTSDLIPAPPLSKVPLQQNFQDNQFHGKWYVVGQAGNIRLREDKDPIKMMATIYELKEDKSYDVTMVKFDDKKCMYDIWTFVPGSQPGEFTLGKIKSFPGHTSSLVRVVSTNYNQHAMVFFKFVFQNREEFYITLYGRTKELTSELKENFIRFSKSLGLPENHIVFPVPIDQCIDGGGGGSGGGGSGGGGSGVRLWATRQAMLGQVHEVPEGWLIFVAEQEELYVRVQNGFRKVQLEARTPLGGSGGAPEQKLISEEDLGSHHHHHHHHHH
8.31
